Data origin, for the record: PubChem BioAssay (NCATS)

Test: Quantitative High-Throughput drug screen in 47 multiple myeloma cell lines against the NCATS MIPE library collection: OCIMY7_PLB cell viability assay (AID 1918987); also: nearly all actives have a fitted effect of over 65% in size
Conditions: OCI-MY7 myeloma viability, CellTiter-Glo ATP, 48 h; series mostly up to 45.8 µM
Results filed as inconclusive are left out. Activity calls are given as the source filed them. Calls follow the shape of the dose curve; as a rule, active = well fitted cell-killing curve with a large enough effect; inconclusive = small, poorly fitted or top-dose-only effect, or effect the other way; inactive = no such curve, though single readings can be large or run the other way.
Labels: T (active), F (inactive)

{"compound": "CC[C@@]1(O)C(=O)OCc2c1cc1n(c2=O)Cc2cc3ccccc3nc2-1", "class.name": "T"}
{"compound": "CC(C)(C)c1cc(C=C(C#N)C#N)cc(Br)c1O", "class.name": "T"}
{"compound": "COC[C@H]1OC(=O)c2coc3c2[C@@]1(C)C1=C(C3=O)[C@@H]2CC[C@H](O)[C@@]2(C)C[C@@H]1OC(C)=O", "class.name": "T"}
{"compound": "CN1CCN(c2ccc([N+](=O)[O-])c3no[n+]([O-])c23)CC1", "class.name": "T"}
{"compound": "C[C@]12Cc3cn[nH]c3C[C@@H]1CC[C@@H]1[C@H]2CC[C@@]2(C)[C@H]1CC[C@]2(C)O", "class.name": "F"}
{"compound": "COc1ccc2c(c[n+](C)c3c4cc5c(cc4ccc23)OCO5)c1OC", "class.name": "T"}
{"compound": "O=c1[nH]c2ccccc2n1C1CCN(Cc2ccc(-c3[nH]c4cc5ncnc5cc4nc3-c3ccccc3)cc2)CC1", "class.name": "T"}
{"compound": "CCCCCC[C@H]1C(=O)O[C@H](C)[C@H](NC(=O)c2cccc(NC=O)c2O)C(=O)O[C@@H](C)[C@@H]1OC(=O)CC(C)C", "class.name": "T"}
{"compound": "CN1[C@H]2CC(O)C[C@H]1[C@H]1O[C@H]12 (stereo not given in full)", "class.name": "T"}
{"compound": "CCOC(=O)Nc1ccc(NCc2ccc(F)cc2)cc1N", "class.name": "T"}

---

System: N140
Assay: qHTS profiling for inhibitors of Plasmodium falciparum proliferation (AID 504749); also: nearly all actives have a fitted effect of over 60% in size
Settings: P. falciparum in erythrocytes, SYBR Green DNA, 72 h; series mostly up to 28.7 µM
Results filed as inconclusive are left out. Active and inactive are the calls of the source. Calls come from the whole dose curve; as a rule, active = well fitted inhibition curve with a large enough effect; inconclusive = small, poorly fitted or top-dose-only effect; inactive = flat fitted curve, though single readings scatter.
Labels: y (active), n (inactive)

{"compound": "CC(C)NC(C)Cc1ccc(I)cc1 (stereo not given)", "class.name": "n"}
{"compound": "C1CCC(NC2CCCCC2)CC1", "class.name": "n"}
{"compound": "O=C(O)COc1ccccc1", "class.name": "n"}
{"compound": "c1ccc(C2(c3ccccc3)CC2C2=NCCN2)cc1 (stereo not given)", "class.name": "n"}
{"compound": "CCCCc1ccc(C(=O)O)nc1", "class.name": "n"}
{"compound": "CC[N+]1(CCOC(=O)C(O)(c2ccccc2)c2ccccc2)CCCCC1", "class.name": "n"}
{"compound": "O=[N+]([O-])c1ccc([As](=O)(O)O)cc1", "class.name": "y"}
{"compound": "CCCN1CCC[C@H](c2cccc(O)c2)C1", "class.name": "n"}
{"compound": "Cc1cc(O)ccc1Cl", "class.name": "n"}
{"compound": "C=CCN1CC[C@]23CCCCC2[C@H]1Cc1ccc(O)cc13 (stereo not given in full)", "class.name": "n"}

---

Experiment: Validation qHTS assay for inhibitors of Activation Induced Cytidine Deaminase (AID): UDG Counterscreen signal (AID 1347427); also: 0% is about no effect
Details: biochemical UDG counterscreen, fluorescence signal; series mostly up to 115 µM
Activity calls are given as the source filed them. The call rests on the fitted dose curve; in most records, active means well fitted curve in the direction sought with a large enough effect; inconclusive means small, poorly fitted or top-dose-only effect, or another doubt; inactive means no such curve, though single readings can be large or run the other way.

{"molecule": "C=CCN1CC[C@]23CCCCC2[C@H]1Cc1ccc(O)cc13 (some centres undefined)", "outcome": "inactive"}
{"molecule": "O=C1CCCN1CC#CCN1CCCC1", "outcome": "inactive"}
{"molecule": "CCCN1CCC[C@H](c2cccc(O)c2)C1", "outcome": "inactive"}
{"molecule": "NC(CP(=O)(O)O)C(=O)O (centres undefined)", "outcome": "inactive"}
{"molecule": "C[C@@H]1O[C@H](C[N+](C)(C)C)C[C@H]1O", "outcome": "inactive"}
{"molecule": "NC(=NCCC[C@H](N)C(=O)O)N[N+](=O)[O-]", "outcome": "inactive"}
{"molecule": "c1ccc(C2(c3ccccc3)CC2C2=NCCN2)cc1 (centres undefined)", "outcome": "inactive"}
{"molecule": "CCCN1CCO[C@@H]2c3cc(O)ccc3OC[C@H]21", "outcome": "inactive"}
{"molecule": "CCCN(CCC)C1CCc2ccc(O)cc2C1 (centres undefined)", "outcome": "inactive"}
{"molecule": "O=C(O)CC[N+](=O)[O-]", "outcome": "inactive"}
{"molecule": "NC(CCP(=O)(O)O)C(=O)O (centres undefined)", "outcome": "inactive"}
{"molecule": "C[C@]12CCC3C(CC[C@H]4C[C@H](O)CC[C@]34C)C1CC[C@@H]2C(=O)CO (some centres undefined)", "outcome": "inactive"}
{"molecule": "COc1cc(C(O)CN)ccc1O (centres undefined)", "outcome": "inactive"}
{"molecule": "CNCCc1ccc(O)c(O)c1", "outcome": "inactive"}

---

Below: a set of entries, each annotated with reported cell viability, % of control (lower = more cytotoxic).
Assay: High-throughput drug toxicity screening in the BPDCN cell line Gen2.2 (AID 1224824);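 also: cells exposed to compounds for 48 h before reading; 100% = DMSO and 0% = bortezomib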
Details: Gen2.2 BPDCN cells; at 45.8 µM (top of the series)
measure.name: cell viability, % of control (lower = more cytotoxic) (%)

{"compound": "CCC(=O)OC1CCC2C3CCC4=CC(=O)CC[C@@]4(C)C3CC[C@]12C (some centres undefined)", "readout.number": 223}
{"compound": "C[C@@]12OC(=O)[C@]1([C@@H](O)[C@@H]1C=CCCC1)NC(=O)[C@H]2CCCl", "readout.number": 5.68}
{"compound": "CCCC[N+]1(C)[C@H]2CC(OC(=O)[C@H](CO)c3ccccc3)C[C@H]1[C@H]1O[C@H]12 (some centres undefined)", "readout.number": 119}
{"compound": "COC(=O)[C@@H](N)CCCN=C(N)N[N+](=O)[O-]", "readout.number": 113}
{"compound": "C[C@H]1CCCC=CC2C[C@H](O)C[C@@H]2[C@H](O)C=CC(=O)O1 (some centres undefined)", "readout.number": 4.51}
{"compound": "O=C(N[C@H]1CN2CCC1CC2)c1ccc(Cl)cc1", "readout.number": 126}
{"compound": "CCN1CCN(C(=O)Cc2ccc(Nc3ncc(F)c(Nc4ccc(C(=O)Nc5ccccc5Cl)cc4)n3)cc2)CC1", "readout.number": 2.73}
{"compound": "CC(=Cc1csc(C)n1)[C@@H]1C[C@H]2O[C@]2(C)CCC[C@H](C)[C@@H](O)[C@@H](C)C(=O)C(C)(C)[C@@H](O)CC(=O)O1", "readout.number": 50.2}
{"compound": "O=S(=O)(CC1CS1)c1ccc(Oc2ccccc2)cc1 (centres undefined)", "readout.number": 3.87}

---

Assay: qHTS for Inhibitors of the Functional Ribonucleoprotein Complex (vRNP) of Lassa (LASV) Arenavirus: Viability assay - alamar blue signal for LASV Primary Screen (AID 1347083); also: nearly all actives have a fitted effect of over 80% in size; also: potency is read from the fitted curve at half-maximal effect
Conditions: cell viability, alamar blue fluorescence (LASV minigenome counter-screen); series mostly up to 57.5 µM
Results filed as inconclusive are left out. Calls of active or inactive are those of the source. Calls come from the whole dose curve; tested in HEK293 reporter line.

{"molecule": "CC(=CCCC1=CCC(C2=CC(=O)OC2O)OC1O)CCC1=C(C)CCCC1(C)C (configuration not stated)", "Potency": "inactive"}
{"molecule": "CC(C)N[C@@H]1CCn2c(=O)[nH]c3cccc(c32)[C@@H]1O", "Potency": "19.3 µM (active)"}
{"molecule": "O=C1CCC[C@@H]2[C@H]3CCCN4CCC[C@@H](CN12)[C@@H]34", "Potency": "inactive"}
{"molecule": "CCN1CCc2nc(N)oc2CC1", "Potency": "inactive"}
{"molecule": "CN[C@@H]1Cc2cccc3[nH]c(=O)n(c23)C1", "Potency": "inactive"}
{"molecule": "COc1cc(Oc2ccnc3cc(OC)c(OC)cc23)ccc1NC(=O)NC(C)c1nccs1 (configuration not stated)", "Potency": "inactive"}
{"molecule": "C[C@]12Cc3cn[nH]c3C[C@@H]1CC[C@@H]1[C@H]2CC[C@@]2(C)[C@H]1CC[C@]2(C)O", "Potency": "inactive"}
{"molecule": "C1=CCOCc2cc(ccc2OCCN2CCCC2)Nc2nccc(n2)-c2cccc(c2)OCC1", "Potency": "7.69 µM (active)"}
{"molecule": "CCCCCCCc1ccc(CCc2cccc(O)c2C(=O)O)cc1", "Potency": "inactive"}
{"molecule": "O=C1CCCC2=C1C(c1[nH]ncc1Cl)N=C(Nc1nc3ccccc3o1)N2 (configuration not stated)", "Potency": "inactive"}
{"molecule": "NCCO", "Potency": "inactive"}
{"molecule": "CCCN1CCC[C@H](c2cccc(O)c2)C1", "Potency": "inactive"}
{"molecule": "C[C@]12COC(=O)C[C@@H]1CC[C@@H]1[C@H]2CC[C@@]2(C)[C@H]1CC[C@]2(C)O", "Potency": "inactive"}
{"molecule": "C#C[C@]1(O)C=C[C@@H]2[C@@H]3CCC4=CC(=O)CC[C@@H]4[C@H]3CC[C@@]21CC", "Potency": "inactive"}
{"molecule": "CCCS(=O)(=O)Nc1ccc(F)c(C(=O)c2c[nH]c3ncc(Cl)cc23)c1F", "Potency": "12.2 µM (active)"}
{"molecule": "[O-][n+]1cccc(CO)c1", "Potency": "inactive"}
{"molecule": "CNC(=O)c1ccc(N2C(=S)N(c3ccc(C#N)c(C(F)(F)F)c3)C(=O)C2(C)C)cc1F", "Potency": "inactive"}
{"molecule": "NC(=O)Nc1cc(-c2cccc(F)c2)sc1C(=O)N[C@H]1CCCNC1", "Potency": "0.306 µM (active)"}
{"molecule": "S=C(NC1CCCCC1)N1CCC(c2cnc[nH]2)CC1", "Potency": "inactive"}
{"molecule": "O=C(Nc1ccc(Oc2ccc(Cl)cc2)c(Cl)c1)c1cc(I)cc(I)c1O", "Potency": "inactive"}
{"molecule": "Nc1cc(C(F)(F)F)c(-c2cc(N3CCOCC3)nc(N3CCOCC3)n2)cn1", "Potency": "1.22 µM (active)"}
{"molecule": "NC(=O)c1ccc(I)c([N+](=O)[O-])c1", "Potency": "inactive"}
